B1: OR4K15 (parent)
chain: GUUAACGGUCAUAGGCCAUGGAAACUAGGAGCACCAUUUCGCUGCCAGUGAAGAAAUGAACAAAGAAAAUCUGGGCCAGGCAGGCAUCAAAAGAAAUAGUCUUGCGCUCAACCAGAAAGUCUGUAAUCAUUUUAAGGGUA

- Variants of: B1
- ASSAY_METHOD_TEXT: self-cleavage, relative activity (ratio to wild type); higher = more cleavage; in vitro, sequencing; the parent is a self-cleaving ribozyme
Classify by measured self-cleavage: 1 if it is equal to or exceeds 1, -1 if it is smaller.

1. C42U G44A	1
2. U57C A118G	-1
3. U26C A55G	-1
4. U2A A68U	-1
5. A67G A89C	1
6. A52U G74A	-1
7. A23G A134U	-1
8. U3C U127C	1
9. G29A A54G	1
10. A86C A95G	1
11. A11G A78U	-1
12. U49G U122A	1
13. C45G U102C	1
14. C6U C46U	1
15. A30G A86G	1
16. A96G C107A	-1
17. A55G A89G	-1
18. U49C A52G	1
19. U3C U100C	1
20. U26C U103A	-1
21. A60G U120A	1
22. G74A A117G	-1
23. U38A A66G	1
24. A63U U70C	1
25. G28A U57C	-1
26. C16U A18U	1
27. U130A U131C	1
28. A98G A117U	-1
29. U2A A60G	1
30. A30C A68G	-1
31. A18C U87C	-1
32. G119A A126G	1
33. A91C A117G	1
34. U12C U100A	-1
35. A22G C109U	-1
36. U72A U108C	-1
37. A54G C128U	1
38. U70A C77U	1
39. A51U G83A	1
40. A5U U12A	-1
41. U97C U130C	-1
42. U43C A59U	1
43. A30U A118G	1
44. A5C A134U	1
45. U43C G93A	1
46. A69G A114C	-1
47. A56G U120C	-1
48. A67U U131G	1
49. A54G G75U	-1
50. A24G A135G	1
51. U37C A111G	-1
52. C32U C40U	1
53. A92G A96U	1
54. A27G A47U	-1
55. A13U U124C	1
56. U49C A56G	1
57. C25U A62G	-1
58. A36U A47U	-1
59. A36G A78G	-1
60. U72C U131C	-1
61. U37C A111U	-1
62. U122A A125U	1
63. A47U U87C	1
64. U38A A64G	1
65. U2A A126G	-1
66. U39G A64G	1
67. A96G G106A	-1
68. U49G	1
69. A68U A90G	1
